system: GbpC (S. mutans), glucan binding protein C (Streptococcus mutans)
experimental_details: SPR, peptide over immobilized GbpC
measured_parameter: Kd (nM)
Quick reminder: number only, in nM, skip the unit.

INPUT: Identify measured Kd corresponding to ETNDANVVARQL (modifications not checked) [SRCR peptide …]
OUTPUT: 3.89
